Measured values drawn from the nanobody polyreactivity screen of Harvey et al. (2022) for this set.

# test name: yeast display, Sf9 membrane polyspecificity reagent, FACS + sequencing; frameworks hold sequencing errors
result type: polyreactivity (PSR sort gate)

polymer sequence	result
QFQLVESGGGLVQAGGSLRLSCAASGFTFYLYAMGWYRQAPGKERELVAAIRGSGGSTYYADSVKGRFTISRDTAKNSVYLQMNSLKPEDTEVYYCAADYKVSASWYYAYTFYYWGQGTQVTVSS	low polyreactivity
QVQLVESGGGLVQAGGSLRLSCAASGSIFTEYVMGWYRQAPGKERELVAAAITRGGSTNYADSVKGRFTISRDNAKNSVYLQMYCLKPEDTAVYYCNKDVWPVSRQLYTGKYDSWGQGTQVTVSS	low polyreactivity

* * *

# test name: yeast display, Sf9 membrane polyspecificity reagent, FACS + sequencing; frameworks hold sequencing errors
result type: polyreactivity (PSR sort gate)

Consider the following illustrative entries.
polymer sequence	result type	result
QVQLVESGGGLVQAGGSLRLSCAASGSIFYSYAMGWYRQAPGKERELVADITITGSTYYADSVKGRFTISRDNAKNTVYLQMNSLKPEDTAVYYCTAVLAPGGYDYWGQGTQVTVSS	polyreactivity (PSR sort gate)	low polyreactivity
QVQLVESGGGLVQAGGSLRLSCAASGSTFHSYAIGWYRQAPGKEREFVAAITIRGGSTYYADSVKGRITISRDNAKNTVYLQMNSLKPEDNAVYYCAALVWGSYARWRYYCGQGTQVTVSS	polyreactivity (PSR sort gate)	high polyreactivity
QVQLVESGGGLFQAGGSLRLSCAASGRIFAYNTMGWYRQAPAKERELVAVITSGGSTNYADSVKGRFTISRDNAKNTVYLQLNSLKAEDTAVYYCAKRPYGRSGGSRYDYWGQGTQVTVSS	polyreactivity (PSR sort gate)	high polyreactivity
QDQLVESGGGLVQAGGSLRLSCAASGFTFRSNAMGWYRQAPGKERELVAAISRTGGSTYYADSVKGRFTISRDNAKNTVYLQMNSLKPEETAVYYCNTVYGKSHYGQAMDSWGQGTQVTVSS	polyreactivity (PSR sort gate)	high polyreactivity
QVQLVESGGGLVQAGGSLRLSCAASGRTFSPYAMGWYRQAPGKERELVAAITSRGASTYYADSVKGRFTISRDNAKNTVYLQINSLKPEDTAVYYCNSGRTYRRLGDYWGQGTQVTVSS	polyreactivity (PSR sort gate)	high polyreactivity

(Q) Reported polyreactivity (PSR sort gate) for `QVQLVESGRGLVQAGGSLRLSCAASGFTCRWYAIGLYRQAPGKERELVAAISRDGSTNYADSVKGRFTISRDNAKNTVYLQMNSLKPEDTSVYYCAKRYYRYPYSQGDYWGQGTQVTVSS` : what is it?
(A) high polyreactivity

(Q) For `QVQLEESGGGLVQAGGSLRLSCAASGSMFTRYAKGWYRQAPWKERELVAAISTSGGSTYYADSVKGRFTISRDNAKNTVYLQMTSLKPEDTAVYYCAADDQRRSGYYSWGQGTQVTVSS` , what is its reported polyreactivity (PSR sort gate)?
(A) high polyreactivity

(Q) What measured polyreactivity (PSR sort gate) goes with `QVQLVESGGGLVQAGGSLRLSCAASGFTFAVYTMGRYIQGPGKERELVAAITASGGSTHYADSVKGRFTISRDNAKNTVYIQMNSLKPEDTAVYYCAARPRLYQYYYWGQGTQVTVSS` ?
(A) high polyreactivity

* * *

# test name: yeast display, Sf9 membrane polyspecificity reagent, FACS + sequencing; frameworks hold sequencing errors
result type: polyreactivity (PSR sort gate)

Worked set:
polymer sequence	result type	result
QVQLVESGGGLVQAGGSLRLSCAASGSTFGFYAMGWYRQAPGKERELVAAISGRGGSTYYADSVKGRFTISRDNAKNTVYLQMNSLKPEDTAVYYCNADWQDDLAGYVVDYWGLGTQVTVSS	polyreactivity (PSR sort gate)	low polyreactivity
QVQHEESGGGLVQAGGSLRLSCAASGLILFYNDMGWYRQAPGNERELVSVITSGGRTYYADSVKGRFTISRDIAKNTVYLQMNSLKPEDTAVYYCAATYGHPTTYCEGWRYGYWGQGTQVTVSS	polyreactivity (PSR sort gate)	low polyreactivity
QVQLVESGGGLVQAGGSLRLSCAPSGITFVKNVMGWYRQAPGKEREFVAAISTIGARTYYADSVKGRFTISRDNAKNTVYLQMNSLIPEDTAVYYCNAYKSGYGQEYDYWGQGTQVTVSS	polyreactivity (PSR sort gate)	high polyreactivity
QVQLVESGGGLVQAGGSLRLSCAASGRIFTAYAMGWYRQAPGKERELVASITTSGTTYYADSVKGRFTISRDNSKNTVYLQMNSLKPEDTAVYYCAADYYGYVQGGIQYGYYYLGQGTQVTVSS	polyreactivity (PSR sort gate)	low polyreactivity
QVQLVESGGGLVQAGGSLRLSCAASGSILLYYTMGWYRQAPGKERELVASITSGGRTYYADSVKGRFTISRDNAKNTVYLQMNSLKPEDTAVYFCAADVWKLYDYWGQGTQVTVSS	polyreactivity (PSR sort gate)	low polyreactivity

(Q) For the sequence `QVQLVESGGGLLQAGGSLRLTCAASGRIFGRYAMGWYRQAPGKERELVAAISYSGGSTRYADSVKGRFTISRDNSKNTVYLQMNSLKPEDTAVYYCAAARRFSTHEYWGQGTQVTVSS` , what polyreactivity (PSR sort gate) is on record?
(A) high polyreactivity

(Q) Item `QVQLVESGGRLVQAGGSLRLSCAASGRTFFGYAMGWYRQAPGKEWELVAAISSGGRTYYADSVKGRFTISRDNAQNTVYLQMNSLKPEDTAVYSCAAQYSARYYYWGQGTQVTVSS` has what recorded polyreactivity (PSR sort gate)?
(A) high polyreactivity

(Q) Given `QVQLVESGGGLLQAGGSLRLSCAASGSTFYFYARGWYRQAPGKERELVAAITGSGGSTYYAVYVKGRFTISRDNSRNSVYLQMKSVKPEDTAVYYCAAGWWYYVHMDYWGQGTQVTVSS` , state its recorded polyreactivity (PSR sort gate).
(A) high polyreactivity

(Q) I'd like to know its polyreactivity (PSR sort gate). The sequence in question is `QVQLVESGGGLVQAGGSLRLSCAASGSIFAQYAMGWYRQAPGKERELVATISSVGSTNYADSVKGRFTISRDNAKNSVYLLMNSLKPEDTAVYYCNAVRSGWGYFYGLNSWGQGTQVTVSS`
(A) low polyreactivity

(Q) Fill in: polyreactivity (PSR sort gate) of `QVQLVESGGGLVQAGRSLRLSCAASGLTFSAYAMGWYRQAPGKEREFVAAITDSDGSTYYADSVKGRFTITRDNAKNTVYLQMNSLKPEDTAVYYCAASGSWYYGNWSGGYDYWGQGTQVTVSS` is ___
(A) low polyreactivity

(Q) Which polyreactivity (PSR sort gate) is reported for this sequence? `QVQLVESGGGLVQAGGSLRLSCAASGFIFFGEYVMGWYRQAPGKEREFVAAISRSSATTYYADSVKGRFTISRDTAKNTVYLQMNSLKPEDTAVYYCNAGDLGRRWGMDYWGQGTQVTVSS`
(A) low polyreactivity

(Q) I am curious: what polyreactivity (PSR sort gate) value has been reported for `QVQLVESGGGLGQAGGSLRLSCAASGSIFPDYVMGWYRQAPGKARELVAAISRGGSTYYADSVKGRFTISRDNAKNTVYLQMNSLKPEDTAVYYCAADNPHWRYEYWGPGTQVTVSS` ?
(A) high polyreactivity

(Q) Tell me the measured polyreactivity (PSR sort gate) of `QLKLEESGGGLVQAGGSLRLSCAASGITFPWYAMGWYRQAPGKERELVAAINRAGNTNYADSVKGRFTISRDNAKNTVYLQRNSLKTEDTAVYYCAARWRYKYTLGYWGQGTQVTVSS` , please.
(A) high polyreactivity

(Q) # get_value(readout='polyreactivity (PSR sort gate)', item= `QVQLVESGGGLVQAGVSLRLSCAGSGSIFRSYTMGWYRQAPGKERELVAAISYSGGRTYYADSVMGRFTISRDNAKNTVYLQLNSLKPEDTAVYYCARRYYVTGCVGYDYWGQGTQVTVSS` )
(A) high polyreactivity

(Q) Give the measured polyreactivity (PSR sort gate) of `QVQLVESGGGLVQAGGSLRLSCAASGSIFRSYAMGWYRQAPGKERELVAAITSRGSSTYYADSVTGRFTISRDNAKNTVYLQMNSLKPEDSAVYYCATVFPYSARDGLDYWGQGTQVTVSS` .
(A) high polyreactivity

(Q) Bench note: what polyreactivity (PSR sort gate) did `QVQLVESGGCLVQAGGSLRLSCAASGSTFGYYAMGWYRQAPGKERELVAAITSNDGSTHYADSVKGRFTISRDNAKNTVYLQMNSLKPEDTEVYYCNARSFVAVISSFVYWGQGTQVTVSS` show?
(A) low polyreactivity

(Q) Requested read-out: polyreactivity (PSR sort gate). Entry: `QVQLVESGGGLVQAGGSLRLSCAASGRIFGINVMGWYRPAPGKERELVARITGRGGRTYYADSVKGRFTMSRDNAKNTVYLQMNSLKPEDTAVYYCAADARYEAYDYWGQGTQVTVSS`
(A) high polyreactivity

(Q) Suppose we examine the sequence `QVQLVESGGGLVQAGGSLRLSCAASGSTFYNYAMGWYRQAPGKERELVAAIRNGGGTNYADSVKGRFTISRDNAKNTVYLQMNSLKPEDTAVYYFNKAYGVSGPGVDYWGQGTQVTVSS` ; what polyreactivity (PSR sort gate) value has been reported?
(A) low polyreactivity

(Q) Request the reported polyreactivity (PSR sort gate) associated with `QVQLVESGGGLVQAGGSLRLSCAASGSTIRGYAMGWYRQVTGKEREMGADISWSGTSTKYADSVKGRFTISRDNAKNTVYLQMNSLKPEDTAVYYCAKRYVRFPWRMDYWGQGTQVTVSS`
(A) high polyreactivity

(Q) Which polyreactivity (PSR sort gate) reading was recorded for the sequence `QVQLVESGGGLVQAGGSLRLSCAASGSTFNYYAMGWDRQAPGTVRELVAAITRNGGRKYYADSVKGRFRLSRDNAKNTVYLQMNSLKPEETAVYYCATDTYSYRSIHDMGYWGQGTQVTVSS` ?
(A) high polyreactivity

(Q) Dear colleague, I am looking for the recorded polyreactivity (PSR sort gate) of the following sequence: `QVQLVESGGGIVQAGGSLRLRCAASGLIFAYNAMGGDRQAPGKEREFVAAINSGGDSTYYADCVKGRFTISRDNAKNTVYLQMNSLKPEDTAVYYCAAVSGNKRYYYWGHGTQVTVSS`
(A) low polyreactivity
